system: Panc-1 human cell line; assay: Cytotoxicity on Panc-1, xCELLigence SP, IC50 after 24 h, 48 h, 72 h and 96 h (Example 22); conditions: PANC-1, 96 h, read-out: IC50 (96 h) [nM]
recorded.endpoint: log10 IC50 (log10 of the value in nM)
Heads up, the numbers here are log10 of IC50 in nM units.

Request: Give the reported value of log10 IC50 for this record: O=C1C2=C(CCN(Cc3cccc(F)c3)C2)N2CCN=C2N1Cc1ccc(C(F)(F)F)cc1 [I/3, reference compound]
Result: 1.35

Request: For O=C1C2=C(CCN(Cc3cccc(F)c3)C2)N2CCN=C2N1Cc1ccc(F)cc1 [I/6, reference compound] , write its log10 IC50.
Result: 1.88

Request: Please report the measured log10 IC50 for O=C1C2=C(CCN(Cc3ccccc3)C2)N2CCN=C2N1Cc1ccc(C(F)(F)F)cc1 [I/1, reference compound]
Result: 2.27

Request: Item [N-]=[N+]=Nc1cccc(CN2CCC3=C(C2)C(=O)N(Cc2ccc(Cl)cc2)C2=NCCN23)c1 [I/133] : provide log10 IC50
Result: 0.67

Request: Give log10 IC50 for the following compound: [N-]=[N+]=Nc1cccc(CN2CCC3=C(C2)C(=O)N(Cc2ccc(C(F)(F)F)cc2)C2=NCCN23)c1 [I/111]
Result: 0.93

Request: Entry [N-]=[N+]=Nc1ccc(CN2C(=O)C3=C(CCN(Cc4cc(F)cc(F)c4)C3)N3CCN=C23)cc1 [I/107] needs its log10 IC50 filled in; supply it.
Result: 1.70

Request: Retrieve log10 IC50 measured for O=C1C2=C(CCN(Cc3cc(F)cc(F)c3)C2)N2CCN=C2N1Cc1ccc(C(F)(F)F)cc1 [I/30] and print it.
Result: -0.29

Request: Note down log10 IC50 recorded for O=C1C2=C(CCN(Cc3cc(F)cc(F)c3)C2)N2CCN=C2N1Cc1ccc(F)cc1 [I/7]
Result: 1.34

* * *

Please provide measured FaDu (pharynx, squamous cell carcinoma) cell viability (% of control) for the entries that follow.
test system: FaDu (pharynx, squamous cell carcinoma) cells; test: Cell viability assay, CellTiter-Glo (Example 21); type: cell-based, human; conditions: 11.1 nM, 72 h treatment

Request: # return recorded FaDu (pharynx, squamous cell carcinoma) cell viability (% of control) for input `O=C1C2=C(CCN(Cc3cc(F)cc(F)c3)C2)N2CCN=C2N1Cc1ccc(F)cc1`
Result: 29.1 ± 5.6 % of control

Request: Please give measured FaDu (pharynx, squamous cell carcinoma) cell viability (% of control) of the following entry: O=C1C2=C(CCN(Cc3cccc(F)c3)C2)N2CCN=C2N1Cc1ccc(C(F)(F)F)cc1 [I/3, reference compound]
Result: 100.9 ± 5.9 % of control

Request: Input O=C1C2=C(CCN(Cc3cccc(F)c3)C2)N2CCN=C2N1Cc1ccc(F)cc1 [I/6, reference compound] , output reported FaDu (pharynx, squamous cell carcinoma) cell viability (% of control).
Result: 97.8 ± 5.2 % of control

Request: Return the recorded FaDu (pharynx, squamous cell carcinoma) cell viability (% of control) value; entry: `[N-]=[N+]=Nc1cccc(CN2CCC3=C(C2)C(=O)N(Cc2ccc(Cl)cc2)C2=NCCN23)c1`
Result: 70.7 ± 13.1 % of control

Request: Let me know recorded FaDu (pharynx, squamous cell carcinoma) cell viability (% of control) for O=C1C2=C(CCN(Cc3ccccc3)C2)N2CCN=C2N1Cc1ccc(C(F)(F)F)cc1 [I/1, reference compound] , thanks.
Result: 98.8 ± 4.7 % of control

Request: Quickly give me recorded FaDu (pharynx, squamous cell carcinoma) cell viability (% of control) for `[N-]=[N+]=Nc1cccc(CN2CCC3=C(C2)C(=O)N(Cc2ccc(C(F)(F)F)cc2)C2=NCCN23)c1`
Result: 66.8 ± 12.0 % of control

Request: Tell me its FaDu (pharynx, squamous cell carcinoma) cell viability (% of control) given `[N-]=[N+]=Nc1ccc(CN2C(=O)C3=C(CCN(Cc4cc(F)cc(F)c4)C3)N3CCN=C23)cc1` as the entry.
Result: 74.3 ± 4.2 % of control

Request: Given the compound `O=C1C2=C(CCN(Cc3cc(F)cc(F)c3)C2)N2CCN=C2N1Cc1ccc(Cl)cc1` , write its reported FaDu (pharynx, squamous cell carcinoma) cell viability (% of control).
Result: 26.1 ± 6.2 % of control

Cited source for all entries: patent US20230295162A1
